- Test system: SNB-75
- test name: NCI tumour cell line growth inhibition, 48 h
The source made the active and inactive calls. Cut-off read from the data, not from the text of the source: active = GI50 up to about 1.1 µM and inactive = higher.
Outcome codes: active, inactive

>  <compound>
Nc1nc(NCCO)c(N=O)c(=O)[nH]1

>  <cat>
inactive

$$$$
>  <compound>
COC(=O)C1C(O)CCC2CN3CCc4c([nH]c5ccccc45)C3CC21 (configuration not stated)

>  <cat>
inactive

$$$$
>  <compound>
O=[N+]([O-])C(C(Cl)=C(Cl)Cl)=C(n1cncn1)n1cncn1

>  <cat>
inactive

$$$$
>  <compound>
C=CCN(CC=C)Cn1c(=S)sc2ccccc21

>  <cat>
inactive

$$$$
>  <compound>
COc1ccc2nccc(NCCCN3CCN(CCCNc4ccnc5ccc(OC)cc45)CC3)c2c1

>  <cat>
active

$$$$
>  <compound>
CC(C)=NNC(=S)NC12CC3CC(CC(C3)C1)C2

>  <cat>
inactive

$$$$
>  <compound>
COc1cc(OC)cc(N(C)Cc2cnc3nc(N)nc(N)c3c2C)c1

>  <cat>
active

$$$$
>  <compound>
COc1cc2c(cc1C)NC(=O)/C2=C/c1c(Cl)[nH]c2ccccc12

>  <cat>
inactive

$$$$
>  <compound>
N#Cc1nc(CN2C(=O)c3ccccc3C2=O)oc1N

>  <cat>
inactive

$$$$
>  <compound>
Cc1ccc(Nc2n[nH]c(NS(=O)(=O)c3cc(C(=O)Nc4ccc(Cl)cc4)c(Cl)cc3S)n2)cc1

>  <cat>
inactive

$$$$
>  <compound>
CNC(=O)OCc1c(COC(=O)NC)c(-c2ccc(Cl)c(Cl)c2)n2c1SCC2

>  <cat>
inactive

$$$$
>  <compound>
OCC(CO)C1c2cccc3ccc4cccc1c4c23

>  <cat>
inactive

$$$$

* * *

- Tested on: HL-60
- test name: NCI tumour cell line growth inhibition, 48 h
Calls of active or inactive are those of the source. Cut-off read from the data, not from the text of the source: active = GI50 up to about 1.1 µM and inactive = higher.
Outcome codes: True for active, False for inactive

>  <compound>
COC1=C(C)C(=O)C2=C(C1=O)C1C3CC4=C(C(=O)C(OC)=C(C)C4=O)C(CNC(=O)C(C)O)N3C(C#N)C(C2)N1C (centres undefined)

>  <cat>
True

$$$$
>  <compound>
O=c1cc(CNC2CC3CCC2C3)[nH]c(=O)[nH]1 (centres undefined)

>  <cat>
False

$$$$
>  <compound>
C[C@]12CC[C@@H]3c4ccc(O)cc4CC[C@H]3[C@@H]1CC[C@@H]2OP(=O)(O)O

>  <cat>
False

$$$$
>  <compound>
COc1cc2c(OC)c(c1)CCCC1=CC(=O)C=C(CCC2)C1=O

>  <cat>
False

$$$$
>  <compound>
C#C[C@@]1(O)CCCC2=CC3(CC[C@]21C)SCCS3

>  <cat>
False

$$$$
>  <compound>
Cc1nc(-n2nc(-c3ccccc3)cc2-c2ccccc2)sc1C(/C=C\c1ccc([N+](=O)[O-])cc1)=N/NC(=S)NN

>  <cat>
False

$$$$
>  <compound>
C=C1CC(C/C=C(\C)CC2CC(=C)C(=O)O2)OC1=O (centres undefined)

>  <cat>
False

$$$$
>  <compound>
O=C(Cc1c(C(=O)Nc2ccccc2)sc(C(=O)Nc2ccccc2)c1CC(=O)Nc1ccccc1)Nc1ccccc1

>  <cat>
False

$$$$
>  <compound>
O=C1CCc2ccc(O)c(c2)Oc2ccc(cc2)C(Sc2ccccc2)CCO1 (centres undefined)

>  <cat>
False

$$$$
